Recorded measurements of in vitro cell killing EC50, NUGC4-claudin18.2 low expression cells (CellTiter-Glo), one per entry
target: human Claudin18.2 (human); assay: cell-based or functional assay
assay_endpoint: in vitro cell killing EC50, NUGC4-claudin18.2 low expression cells (CellTiter-Glo) (nM)

| binder | relational_operator | value_observed |
| --- | --- | --- |
| ADC-3 (antibody, human IgG1, kappa, V domains shown, compound 9-A coupled to sulfhydryl groups after TCEP reduction; mean drug loading n=2.51 per antibody; positions not given) VH: EVQLVESGGGLVQPGGSLRLSCAASGFTFSDYGIHWVRQAPGKGLEWIAYISRGSSTIYYADTVKGRFTISRDNAKNSLYLQMTSLRAEDTAVYYCARGGYDTRNAMDYWGQGTTVTVSS VL: DIVMTQSPDSLAVSLGERATISCKSSQSLLNSGNQKNYLAWYQQKPGQPPKLLIYGASTRASGVPDRFSGSGSGTDFTLTISSLQAEDVAIYHCQNDLYYPLTFGQGTKLEIKR | > | 500 |
| ADC-2 (antibody, human IgG1, kappa, V domains shown, compound 9-A coupled to sulfhydryl groups after TCEP reduction; mean drug loading n=7.1 per antibody; positions not given) VH: EVQLVESGGGLVQPGGSLRLSCAASGFTFSDYGIHWVRQAPGKGLEWIAYISRGSSTIYYADTVKGRFTISRDNAKNSLYLQMTSLRAEDTAVYYCARGGYDTRNAMDYWGQGTTVTVSS VL: DIVMTQSPDSLAVSLGERATISCKSSQSLLNSGNQKNYLAWYQQKPGQPPKLLIYGASTRASGVPDRFSGSGSGTDFTLTISSLQAEDVAIYHCQNDLYYPLTFGQGTKLEIKR | = | 109 |
| ADC-4 (antibody, human IgG1, kappa, V domains shown, compound 9-A coupled to sulfhydryl groups after TCEP reduction; mean drug loading n=4.06 per antibody; positions not given) VH: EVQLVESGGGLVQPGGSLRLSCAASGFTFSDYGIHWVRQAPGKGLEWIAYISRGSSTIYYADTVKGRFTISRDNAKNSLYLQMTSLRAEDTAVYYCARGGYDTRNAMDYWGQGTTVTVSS VL: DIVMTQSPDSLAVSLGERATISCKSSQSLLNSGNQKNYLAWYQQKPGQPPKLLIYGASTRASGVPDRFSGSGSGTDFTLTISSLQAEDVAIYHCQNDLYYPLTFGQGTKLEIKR | = | 299 |
| ADC-5 (antibody, human IgG1, kappa, V domains shown, compound 9-A coupled to sulfhydryl groups after TCEP reduction; mean drug loading n=6.8 per antibody; positions not given) VH: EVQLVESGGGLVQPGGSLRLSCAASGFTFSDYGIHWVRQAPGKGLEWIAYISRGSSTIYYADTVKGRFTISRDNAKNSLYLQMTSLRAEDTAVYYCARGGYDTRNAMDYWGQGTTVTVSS VL: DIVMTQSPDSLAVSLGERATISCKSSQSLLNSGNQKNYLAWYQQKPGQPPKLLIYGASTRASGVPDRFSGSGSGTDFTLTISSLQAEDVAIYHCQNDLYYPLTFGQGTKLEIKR | = | 142 |
